Would you mind telling me the reported pIC50 of each entry?
System: Salmonella
Format: cell-based, S. typhimurium
measurement_context: pH 7.2
Text: The experiments described above characterizing the activity of granulysin peptides G1-G18 relied on counting bacterial colonies on plates. This assay is quite labor intensive and would not allow evaluation of many different compounds on a number of different microbes. Therefore, we optimized an assay in which the entire procedure could be completed in a single microtiter well. […] The OD at 600 nm is read on an ELISA plate reader. […]
Ends that are not written are not given here.
Answers are plain numbers, as −log10 of the molar value.

QRSVSRAATRVSRTGRSRWRRVSRRFMRR [Peptide G8.9] : 6.66
GRSRWRRVSRRFMRR [Peptide G14.11, GRSRWRRVSRRFMRR] : 6.36
QRRSSRFMRRYQRVVPRGLV [Peptide G12.24] : 6.15
RRVSRRFMRRYQSRVIQGLV [Peptide G12.6] : 6.05
QRAVARAATRVARTGRARWRRVARRFMRR [Peptide G8.10] : 6.68
QRAVARAATRVARTGRARWRDVARRFMRR [Peptide G8.7] : 6.38

[Q] Return value of pIC50 for input RRPSRRFPRR [Peptide G11.37, RRPSRRFPRR] , no commentary.
[A] 5.77

---

Would you mind telling me the reported pIC50 of each entry?
System: Salmonella
Type: cell-based, S. typhimurium
measurement_context: pH 7.2
Ends that are not written are not given here.
Answers are plain numbers, as −log10 of the molar value.

The cases that follow already have their pIC50 on record.
SDVARRFMRRQSRVIRRLV [Peptide G12.22, SDVARRFMRRQSRVIRRLV] : 6.05
RRVVRRFMRR [Peptide G11.16, RRVVRRFMRR] : 5.46
RRVSRRFMRR [Peptide G11.44, RRVSRRFMRR] : 5.50
RRVVRRLLRR [Peptide G11.19, RRVVRRLLRR] : 5.11
WRDVSRNFMRRGRSRGWRDVSRNFMRR [Peptide G11.36] : 6.05
QRSVSRAATRVSRTGRSRWRDVSRRFMRR [Peptide G8.4] : 6.68
QRSVSRAATRVSRTGRSNWRDVGRRFMRR [Peptide G8.15] : 6.39
RDVSRRFMRRGRDVSRRFMRR [Peptide G11.38] : 6.09

[Q] Return value of pIC50 for input QRSVSNAATRVSRTGRSRWRDVSRRFMRR [Peptide G8.3] , no commentary.
[A] 6.35

---

Tested on: B. cereus
Assay type: cell-based
measurement_context: pH 7.2
Text: The experiments described above characterizing the activity of granulysin peptides G1-G18 relied on counting bacterial colonies on plates. This assay is quite labor intensive and would not allow evaluation of many different compounds on a number of different microbes. Therefore, we optimized an assay in which the entire procedure could be completed in a single microtiter well. […] The OD at 600 nm is read on an ELISA plate reader. […]
Ends that are not written are not given here.
# label = True if B. cereus MIC >= 0.7 µM else False

Example results:
QRAVARAATRVARTGRARWRDVARNFMRR [Peptide G8.5] : True
KKVSKKFMKKGSKKVSKKFMKKGSKKVSKKFMKK [Peptide G11.25] : False
RRPSRRFPRR [Peptide G11.37, RRPSRRFPRR] : True
KKVSKKFMKKYQSKVIQGLV [Peptide G12.9] : True
RDVSRRFMRRGRDVSRRFMRR [Peptide G11.38] : True

[Q] Evaluate QRSVSRPPTRVSRTGRSRWRDVSRRFMRR [Peptide G8.12] : B. cereus MIC at minimum 0.7 µM?
[A] False

[Q] Evaluate QRSVSRPPTRVSRTGRARW [Peptide G13.12, QRSVSRPPTRVSRTGRARW] : B. cereus MIC at minimum 0.7 µM?
[A] True

[Q] Evaluate RRVSRRFMRRSGSGSGSGQQMVQQSGQQFS [Peptide G11.40] : B. cereus MIC at minimum 0.7 µM?
[A] True

[Q] Evaluate QRAVANAATRVARTGRARWRDVARRFMRR [Peptide G8.6] : B. cereus MIC at minimum 0.7 µM?
[A] True

[Q] Evaluate GSRRWRDVSRRFMRR [Peptide G14.14, GSRRWRDVSRRFMRR] : B. cereus MIC at minimum 0.7 µM?
[A] False

[Q] Evaluate RDVARRFMRRQSRVISRLV [Peptide G12.15, RDVARRFMRRQSRVISRLV] : B. cereus MIC at minimum 0.7 µM?
[A] True

[Q] Evaluate RRVSRRFMRRGSRRVSRRFMRR [Peptide G11.7] : B. cereus MIC at minimum 0.7 µM?
[A] False

[Q] Evaluate RDVSRRFMRRQSRVIQGLV [Peptide G12.3, RDVSRRFMRRQSRVIQGLV] : B. cereus MIC at minimum 0.7 µM?
[A] True

[Q] Evaluate QRSVSRAPTRVSRTGRSRW [Peptide G13.8, QRSVSRAPTRVSRTGRSRW] : B. cereus MIC at minimum 0.7 µM?
[A] True

[Q] Evaluate RRVSRRFMRRYRSRVIRGLV [Peptide G12.7] : B. cereus MIC at minimum 0.7 µM?
[A] False

[Q] Evaluate KKVSKKFMKK [Peptide G11.8, KKVSKKFMKK] : B. cereus MIC at minimum 0.7 µM?
[A] True

[Q] Evaluate GRARWRDVARRFMRR [Peptide G14.9, GRARWRDVARRFMRR] : B. cereus MIC at minimum 0.7 µM?
[A] True

[Q] Evaluate GRSGWRDVSRNFRRG [Peptide G14.12, GRSGWRDVSRNFRRG] : B. cereus MIC at minimum 0.7 µM?
[A] True

---

Tested on: B. cereus
Format: cell-based
measurement_context: pH 7.2
Ends that are not written are not given here.
Would you mind telling me the reported B. cereus MIC of each entry?
Give bare numbers, in µM.

The cases that follow already have their B. cereus MIC on record.
RRVSRRFMRRYRSRRPRRLV [Peptide G12.11] : 0.35
VHKRRVSRRFMRRLGH [Peptide G11.42, VHKRRVSRRFMRRLGH] : 0.4
QRSVSNAATRVSRTGRSRWRDVSRRFMRR [Peptide G8.3] : 1.25
GRSRWRDVSRRFMRR [Peptide G14.2, GRSRWRDVSRRFMRR] : 2.8
QRSVSRAATRVSRTGRSRWRRVSRRFMRR [Peptide G8.9] : 0.7

Attention now shifts to the item below.
[Q] Return value of B. cereus MIC for input QRAVARAATRVARTGRARWRRVARRFMRR [Peptide G8.10] , no commentary.
[A] 0.75

---

Would you mind telling me the reported B. cereus MIC of each entry?
Test system: B. cereus
Type: cell-based
measurement_context: pH 7.2
Ends that are not written are not given here.
Give bare numbers, in µM.

The cases that follow already have their B. cereus MIC on record.
RDVSRRFMRRGSRDVSRRFMRR [Peptide G11.6] : 2.4
GRSRWRDVCRNFMRR [Peptide G14, GRSRWRDVCRNFMRR, reference compound] : 2.8
GRSRWRRVSRRFMRR [Peptide G14.11, GRSRWRRVSRRFMRR] : 0.7
RRVSRRFMRRYQSRVIQGLV [Peptide G12.6] : 0.7
RDVSRRFMRRGSRDVSRRFMRRGSRDVSRRFMRR [Peptide G11.26] : 0.35

Could I get B. cereus MIC for every one of these entries?
1. QRSVSRAATRVSRTGRSRW [Peptide G13.2, QRSVSRAATRVSRTGRSRW]
2. RRVVRRLLRR [Peptide G11.19, RRVVRRLLRR]
3. QRSVSRAATRVSRTGRSNWRDVGRRFMRR [Peptide G8.15]
4. SDVARRFMRRQSRVIRRLV [Peptide G12.22, SDVARRFMRRQSRVIRRLV]
5. QRSVSRAATRVCRTGRSNW [Peptide G13.10, QRSVSRAATRVCRTGRSNW]
6. RRVSRRFMRRSRWARKGSGQMVQQSSQQFQ [Peptide G11.41]
7. QRRSSRFMRRYQRVVPRGLV [Peptide G12.24]
8. RRVSRRFMRRYRSRRIRRLV [Peptide G12.8]

[A]
1. 5.6
2. 6.65
3. 0.7
4. 5.7
5. 5.6
6. 1.38
7. 0.8
8. 0.71

[Q] Return value of B. cereus MIC for input RRLLRRLLRRGSRRLLRRLLRR [Peptide G11.23] , no commentary.
[A] 0.7

---

Test system: Salmonella
Format: cell-based, S. typhimurium
measurement_context: pH 7.2
Source text: The experiments described above characterizing the activity of granulysin peptides G1-G18 relied on counting bacterial colonies on plates. This assay is quite labor intensive and would not allow evaluation of many different compounds on a number of different microbes. Therefore, we optimized an assay in which the entire procedure could be completed in a single microtiter well. […] The OD at 600 nm is read on an ELISA plate reader. […]
Ends that are not written are not given here.
Dear colleague, classification is by IC50, with ranges listed here: bottom bin: < 0.4 µM; middle bin: ≥ 0.4 µM and < 0.8 µM; top bin: ≥ 0.8 µM

RRVSRRFMRRYQSRVPQGLV [Peptide G12.10] : top bin
GRSRWRDVSRRFMRR [Peptide G14.2, GRSRWRDVSRRFMRR] : top bin
RRVSRRFMRRGSRRVSRRFMRR [Peptide G11.7] : bottom bin
QRSVSNPPTRVSRPPRSRWRDVSRPPMRR [Peptide G8.16] : top bin
RRVSRRFMRRSRWARKGSGQMVQQSSQQFQ [Peptide G11.41] : top bin

[Q] Hi, small favor: classify QRSVSRPPTRVSRTGRSRW [Peptide G13.11, QRSVSRPPTRVSRTGRSRW] by its IC50 when you get a moment.
[A] top bin

[Q] Hi, small favor: classify QRSVSRPPTRVSRTGRSRWRDVSRRFMRR [Peptide G8.12] by its IC50 when you get a moment.
[A] bottom bin

[Q] Hi, small favor: classify RDVARRFMRRQSRVISRLV [Peptide G12.15, RDVARRFMRRQSRVISRLV] by its IC50 when you get a moment.
[A] middle bin

[Q] Hi, small favor: classify RRVSRPPMRRYRSRRPRRLV [Peptide G12.20] by its IC50 when you get a moment.
[A] middle bin

[Q] Hi, small favor: classify VHKRRVSRRFMRRLGH [Peptide G11.42, VHKRRVSRRFMRRLGH] by its IC50 when you get a moment.
[A] top bin

[Q] Hi, small favor: classify QRAVANAATRVARTGRARWRDVARRFMRR [Peptide G8.6] by its IC50 when you get a moment.
[A] middle bin

[Q] Hi, small favor: classify QRSVSRAATRVSRTGRSRWRDVSRNFMRR [Peptide G8.2] by its IC50 when you get a moment.
[A] middle bin

[Q] Hi, small favor: classify RDVSRRFMRRQSRVIQGLV [Peptide G12.3, RDVSRRFMRRQSRVIQGLV] by its IC50 when you get a moment.
[A] top bin

[Q] Hi, small favor: classify KKVSKKFMKKGSKKVSKKFMKKGSKKVSKKFMKK [Peptide G11.25] by its IC50 when you get a moment.
[A] bottom bin

Reference source for all entries: patent US7745390B2
